Test system: SN12C renal
Assay: NCI-60 one-dose screen, 48 h
Settings: 10 µM unless noted
This is part of a sample that, as a whole, favours compounds with a hit. Of some 83,000 tested, about 20% had one in any assay. The source made the active and inactive calls. How the source made its calls: active means growth percent below 10; inactive means the rest.
Labels: active, inactive

* CCOC(=O)c1cc(C(=O)c2cc(OC)c(OC)c(OC)c2)n2c1ccc1ccccc12 | inactive
* Cc1ccc(-c2nc(C(Cl)Cl)n3nc(-c4ccccc4)cc3n2)cc1 | inactive
* Cc1cc(N/N=C/c2nc(-c3ccccc3)oc2C)c2cc(Br)ccc2n1 | inactive
* Cc1cc(N/N=C/c2nc(-c3ccc(Br)cc3)oc2C)c2cc(Br)ccc2n1 | inactive
* CCN(CC)CCC(CNc1c2ccc(Cl)cc2nc2ccc(OC)cc12)c1ccccc1 (stereo unspecified) | inactive
* Clc1ccc2c(NC3CCC(NC4CCCCC4)CC3)ccnc2c1 (stereo unspecified) | inactive
* Brc1cccc(-c2cc(-c3ccc4c(c3)OCCCO4)[nH]n2)c1 | inactive
* NC(=S)N/N=C(/CCN1CCCC1)CC(C1=C(O)C2=CCCCC2OC1=O)c1ccccc1 (stereo unspecified) | inactive
* N=c1ccc2nc3ccc(N)cc3sc-2c1 | active
* CC(C)OC(=O)N1CCOCC1 | inactive
* O=C(Nc1cccc(-n2cc(-c3ccncc3)c(-c3ccc(Cl)c(O)c3)n2)c1)Nc1ccc(Cl)c(Cl)c1 | inactive
* N/C(=N\C(N)=N\c1nc2ccccc2s1)c1cccc(Br)c1 | inactive
* C=C1C(=O)O[C@H]2[C@H]1CC/C(COC(=O)NCc1ccccc1OC)=C\CC[C@@]1(C)O[C@@H]21 | inactive
* COc1ccc(/C=N\NC(=O)CN2CCN(c3cc4c(cc3F)c(=O)c(C(=O)N/N=C/c3ccc(OC)c(OC)c3)cn4C3CC3)CC2)cc1OC | active
* Cc1ccc(S(=O)(=O)C2=C3C(=C(c4ccccc4)c4ccccc43)CN(S(=O)(=O)c3ccc(C)cc3)C2)cc1 | inactive
* Cc1cc(N/N=C/c2nc(-c3ccc(Br)cc3)oc2C)c2cc(Cl)ccc2n1 | inactive

---

Here the recorded growth is given for each entry.
Tested on: HOP-92 NSCLC
Assay: NCI-60 one-dose screen, 48 h (100 = growth as untreated, 0 = no growth, -100 = all killed)
Conditions: 10 µM unless noted
Compounds without any hit were thinned out: in the full panel of roughly 83,000, 20% have a hit. Calls of active or inactive are those of the source. The calls were made as follows: active = growth percent below 10; inactive = the rest.
measuredMetric: growth

- Cc1ccc2[nH]c(=O)c3c(c2c1)Oc1ncn2nc(-c4ccco4)nc2c1C3c1ccc(Cl)cc1 (centres undefined): 78.5% (inactive)
- CCOC(=O)c1ccc(NC(=O)N2CC(C)OC(C)C2)cc1 (centres undefined): 81.2% (inactive)
- FC(F)(F)c1ccccc1-c1cn2c(ccc3ccccc32)n1: 79.9% (inactive)
- COc1ccc(/C=C/c2c(C(C)=O)c(C)nc3ccccc23)cc1: 79.3% (inactive)

---

Tested on: COLO 205 colon
Experiment: NCI-60 one-dose screen, 48 h (100 = growth as untreated, 0 = no growth, -100 = all killed)
Conditions: 10 µM unless noted
Compounds without any hit were thinned out: in the full panel of roughly 83,000, 20% have a hit.
measuredMetric: growth (%)

- C=C[C@@H]1C[C@H](O)Cc2cc(F)ccc2N1: 107
- N=C(N)c1ccc(-c2ccc(-c3ccc4ccccc4c3)s2)cc1: 97.9
- Cc1ccc(-c2cc3nc(C(Cl)Cl)nc(-c4cccnc4)n3n2)cc1: -82.6
- Cc1cc(C(C)(C)C)ccc1S: 116
- CCCCCCCC/C=C/CCCCCCCC1=NC(C)(C)CN1C(C)(C)CO: -86.3
- CC(=O)Oc1cccc(S(=O)(=O)n2cc(C(=O)C(=O)Nc3ccncc3)c3ccccc32)c1: 100
- CN(C)c1ncnc2c1ccn2C1OC(CO)C(O)C1O (stereo not drawn): 54.3
- Cc1nn(-c2ccc(Cl)cc2)c2ncnc(N/N=C/c3cccc([N+](=O)[O-])c3)c12: 95.3
- CN(C)CC(C(=O)c1ccccc1)c1ccccc1 (stereo not drawn): -48
- O=C(Nc1ccncc1)C(=O)c1cn(S(=O)(=O)c2ccc(Oc3ccccc3)cc2)c2ccccc12: 107
- COc1cccc(CC(C)=C(c2ccc(OCCN3CCCCC3)cc2)c2ccc(OCCN3CCCCC3)cc2)c1: -81.2
- CC(C)(C)N1CCC1C(N)=O (stereo not drawn): 106
- COc1ccc(NC(=O)c2c(Nc3ccc(OC)cc3OC)n[nH]c2N)c(OC)c1: 100
- Cc1cc(N)n(S(=O)(=O)c2oc(-c3ccccc3)nc2C#N)n1: -34
- c1ccc(-c2nc(N3CCNCC3)c3nc(-c4ccccc4)oc3n2)cc1: -84
- COc1ccc(S(=O)(=O)Nc2cc(/C=C\c3cc(OC)c(OC)c(OC)c3)cc(OC)c2OC)cc1: -62.4
- COc1cccc(CC(C)=C(c2ccc(OCCN(C)C)cc2)c2ccc(OCCN(C)C)cc2)c1: -70.5
- Cc1cc(N/N=C/c2nc(-c3ccccc3)oc2C)c2cc(Br)ccc2n1: 85.6
- COc1ccc(-c2nc(-c3nc4cc(C)c(C)cc4[nH]3)cc3c2[nH]c2ccccc23)cc1: 41.9
- CCCCCCCCCCCCNC(=O)[C@H]1CSC(c2cc(Br)cs2)N1 (stereo partly drawn): 108
- CCN(CC)c1ccc(C(=N)c2ccc(N(CC)CC)cc2)cc1: -96.6
- CCn1c2ccccc2c2cc(NC(=O)Nc3ccc([N+](=O)[O-])cc3C)ccc21: 29.9
- COc1ccc(C2=CC(c3cc(OC)c(OC)c(OC)c3)NC(=O)N2)cc1OC (stereo not drawn): -24.1
- Nc1cc2c(cc1C(=O)c1cccc(F)c1)OCCO2: 111
- COC(=O)c1nc(-c2ccccc2)oc1S(=O)(=O)N1CCN(c2cccc(Cl)c2)CC1: 82.5
- Cc1ccc(S(=O)(=O)NCCNc2nccc(-c3c(-c4ccc(O)cc4)nc4sccn34)n2)cc1: 104
- Cc1ccc(S(=O)(=O)NCCCNc2cc(-c3cn(C(C)(C)C)nc3-c3cccc(O)c3)ccn2)cc1: 8.53
- COc1ccc(Nc2ncccc2C(=O)NCc2cn(Cc3cccc(Oc4ccccc4)c3)nn2)c(OC)c1: 4.54
- COc1ccc(-c2cc3c(OC)c(OC)c(OC)cc3oc2=O)cc1: 31.5
- Cc1cc(N/N=C/c2nc(-c3ccc(Br)cc3)oc2C)c2cc(Br)ccc2n1: 99.7
- COc1cc(/C=C/C(=O)c2cccc(-n3cc(-c4cc(OC)c(OC)c(OC)c4)[nH]c3=O)c2)cc(OC)c1OC: -36.1
- O=C(Oc1ccccc1[N+](=O)[O-])C1CCCN1C(=O)OCc1ccccc1 (stereo not drawn): 115
- Nc1nc(Nc2cc(Cl)cc(Cl)c2)nn1S(=O)(=O)c1ccc2ccccc2c1: 66.5
- O=C(CN1CCN(c2cc3c(cc2F)c(=O)c(C(=O)N/N=C/c2ccccc2O)cn3C2CC2)CC1)N/N=C\c1ccccc1O: 17.4
- CN1CCN(CCCOc2ccc3nc(Nc4ccc(Cl)c(C(F)(F)F)c4)ccc3c2)CC1: -40.7
- Fc1ccc(Nc2nc(NCCNc3ccnc4cc(Cl)ccc34)nc(N3CCOCC3)n2)cc1: -85.7
- COc1ccc(-n2c(=O)sc3c(Cl)nc(C)nc32)c(OC)c1: 99.4
- COc1ccc(-c2[nH]nc(N)c2-c2cc(OC)c3c(c2)OCO3)cc1: 61.3
